Reported cell count values are given for each entry in this list.
assay: inhibitors of TNFa-induced NFkB p65 translocation, primary screen, imaging, HUVEC, MLSMR starter and 10KST1 sets (AID 438); settings: HUVEC TNFa-induced p65 nuclear translocation; measured here: nuclei count (cytotoxicity indicator), at 2.08 µM;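 further: compound added about 3h40 before a 20 min TNFalpha stimulation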

Below, 10 compounds whose answers are already recorded.
* O=C(CSc1ccccc1C(=O)NCCCN1CCCC1=O)NCc1ccco1 | 463
* CCOC(=O)C1CCCN(S(=O)(=O)c2cccs2)C1 (configuration not stated) | 243
* CN1CCN(c2ncnc3c2cnn3-c2ccc(Cl)cc2)CC1 | 688
* COC1CCCCC1NS(=O)(=O)c1ccccc1 (configuration not stated) | 317
* COc1ccc(OC)c(NC(=O)CSc2ncccc2C(=O)O)c1 | 409
* O=C(CCSc1nnc(-c2ccncc2)o1)Nc1ccccc1 | 680
* O=C(NC1CCCC1)C(NS(=O)(=O)c1cccc2nsnc12)c1ccccc1 (configuration not stated) | 309
* CCSc1nc(O)c(CC)c(=O)n1C(C)CC (configuration not stated) | 304
* CCOCCCN(Cc1cc2cc(C)cc(C)c2[nH]c1=O)C(=O)N(CC)CC | 320
* Cc1nn(Cc2ccccc2)c2c1C(c1ccncc1)C(C#N)=C(N)O2 (configuration not stated) | 273

query: Could you share which cell count value was measured for COc1cccc(OC)c1C(=O)N1CCN(S(=O)(=O)c2ccccc2)CC1 ?
result: 437

query: Could you share which cell count value was measured for Cc1nn(-c2nc3ccccc3s2)c(C)c1Oc1ccccc1O ?
result: 591

query: Could you share which cell count value was measured for CCc1c(C(=O)Nc2cc(C)ccc2OC)[nH]c(C)c1C(C)=O ?
result: 313

query: Could you share which cell count value was measured for CC(=O)Nc1ccc(Cc2ccncc2)cc1 ?
result: 528

query: Could you share which cell count value was measured for CC(=O)CCc1ccc(OCCCCn2cncn2)cc1 ?
result: 513
